method: protein stability index of a GFP-peptide fusion (yeast GPS) (PSI 1-4); higher = more stable; sorted into four equal gates, so the index is relative within each strain
condition info: doa10∆
measure: protein stability index
Response field accepts a number only; no unit should be typed.

// worked examples, protein stability index included
[
  {
    "seq text": "NTKEEFAAAPNDTSSGT [SNF5]",
    "protein stability index": 2.97
  },
  {
    "seq text": "VFSESCSNESFASIPVS [SNU114]",
    "protein stability index": 2.98
  },
  {
    "seq text": "ATMSVFLQRIDFQIDGN [RRI2]",
    "protein stability index": 2.92
  },
  {
    "seq text": "YNGRGARERKTATYNDN [SNF2]",
    "protein stability index": 3
  }
]

Endpoint output: protein stability index of TGSDREVQRILIELLTQ [RPT3] . Value?
3.02

Endpoint output: protein stability index of GNENFEDFDVEHFSDEE [RPO26] . Value?
3.05

###

method: protein stability index of a GFP-peptide fusion (yeast GPS) (PSI 1-4); higher = more stable; sorted into four equal gates, so the index is relative within each strain
condition info: san1∆
measure: protein stability index
Response field accepts a number only; no unit should be typed.

[
  {
    "seq text": "LWLKKVMEEEEQDCKCI [POP8]",
    "protein stability index": 3.05
  }
]

Endpoint output: protein stability index of SREAVRHFGMGPHKGKA [RPL18A] . Value?
3.04

Endpoint output: protein stability index of SGNNSKKRKNKSSGSSM [ROX3] . Value?
2.91

Endpoint output: protein stability index of RVHANLQCISQINQGVP [SNF11] . Value?
1.47

Endpoint output: protein stability index of KKQPSILVGGTLKDYQI [SNF2] . Value?
2.35

Endpoint output: protein stability index of QLLTPGSKISSNDLDKF [YGL172W/NUP49] . Value?
3.13

###

method: protein stability index of a GFP-peptide fusion (yeast GPS) (PSI 1-4); higher = more stable; sorted into four equal gates, so the index is relative within each strain
condition info: san1∆
Classify as follows. Reported protein stability index greater than or equal to 3: rule met. Reported protein stability index below: rule not met.

[
  {
    "seq text": "SDVLFEFTKINTPLVGA [YJL039C/NUP192]",
    "cat": "rule not met"
  },
  {
    "seq text": "KELEPWDLQLQEKESQI [SMC4]",
    "cat": "rule met"
  },
  {
    "seq text": "SKKTSPKATSSAGAVFK [YOR098C/NUP1]",
    "cat": "rule not met"
  },
  {
    "seq text": "GFERLTVNEPQMSDKHA [SRB7]",
    "cat": "rule met"
  },
  {
    "seq text": "VLPAATKKKSKFMTNST [ARP9]",
    "cat": "rule not met"
  },
  {
    "seq text": "INYHQYISKAQNDQWSI [SSN2]",
    "cat": "rule not met"
  },
  {
    "seq text": "VGDVVGGALDNPFEDDM [BRN1]",
    "cat": "rule met"
  },
  {
    "seq text": "DFQPTELFDILSTSEDV [IRR1]",
    "cat": "rule not met"
  }
]

Entry DNNNGDDDDEDDDEIVM [SKP1] : is its protein stability index no less than 3?
rule not met

Entry LNVIIDQLAVSPEQIDA [YCS4] : is its protein stability index no less than 3?
rule not met

Entry LKKIASIPNLFPTDLEI [SWI1] : is its protein stability index no less than 3?
rule not met

Entry SSDGQLKKFRESLVHSA [BRR2] : is its protein stability index no less than 3?
rule met

Entry QLAPSSVDPQSSSTQNV [DIS3] : is its protein stability index no less than 3?
rule not met

###

This section presents sequences with their documented protein stability index values.
method: protein stability index of a GFP-peptide fusion (yeast GPS) (PSI 1-4); higher = more stable; sorted into four equal gates, so the index is relative within each strain
condition info: doa10∆
Response field accepts a number only; no unit should be typed.

[
  {
    "seq text": "QAGVTKASVTIVFDNTD [SMC2]",
    "protein stability index": 2.23
  }
]

Endpoint output: protein stability index of RVHRLLRRGNYAQRIGS [HTA1] . Value?
2.65

Endpoint output: protein stability index of YPFDKLESWWLVLGEVS [BRR2] . Value?
3.18

Endpoint output: protein stability index of NNSSSGMNNASAGLFGS [YGL172W/NUP49] . Value?
3.18

Endpoint output: protein stability index of MAKSKNHTAHNQTRKAH [RPL29] . Value?
1.7

Endpoint output: protein stability index of AIIVAGVQSNGDQFLRY [PRE4] . Value?
2.74

###

method: protein stability index of a GFP-peptide fusion (yeast GPS) (PSI 1-4); higher = more stable; sorted into four equal gates, so the index is relative within each strain
condition info: san1∆
This section presents sequences with their documented protein stability index values.
Response field accepts a number only; no unit should be typed.

[
  {
    "seq text": "STCIVSLIRNNLHAEGW [ECM29]",
    "protein stability index": 2
  }
]

Endpoint output: protein stability index of FGVSFIYAGYDDRYGYQ [PRE9] . Value?
2.04

Endpoint output: protein stability index of KSMELFYDIRSLLERHI [YJL039C/NUP192] . Value?
2.91

Endpoint output: protein stability index of SLSKISQAFDIVAALPI [RPP1] . Value?
2.97

Endpoint output: protein stability index of PSTNKKLSISNAASQQP [GAL11] . Value?
2.56

Endpoint output: protein stability index of VEYNLFTNRSTMMANFE [BRN1] . Value?
2.37

Endpoint output: protein stability index of LDALVDCENFFNYVQEC [YJL039C/NUP192] . Value?
3.44

Endpoint output: protein stability index of DLYHFALNYENEAGRKL [SNF2] . Value?
3.26

Endpoint output: protein stability index of PTLVRSVISGNLSLYEA [CSN12] . Value?
3.06

Endpoint output: protein stability index of ALCKNRKCQFRTPDSIS [POP1] . Value?
2.28

Endpoint output: protein stability index of YKVDNMTRILPQQSRYI [RPN2] . Value?
2.5

Endpoint output: protein stability index of FTLKQWNRLTISVTDTE [COR1] . Value?
1.14

Endpoint output: protein stability index of IEPQVINYLALNAANYN [ECM29] . Value?
2.15

Endpoint output: protein stability index of MEMIENRTMDGKPVSLP [FAS1] . Value?
2.75

Endpoint output: protein stability index of PRDVIKGKDFEITAKEV [FAS1] . Value?
3.24

###

method: protein stability index of a GFP-peptide fusion (yeast GPS) (PSI 1-4); higher = more stable; sorted into four equal gates, so the index is relative within each strain
condition info: san1∆
measure: protein stability index
Response field accepts a number only; no unit should be typed.

// worked examples, protein stability index included
[
  {
    "seq text": "TRISSQFEKSRKVSGPR [RET1]",
    "reported": 2.92
  },
  {
    "seq text": "AETDYVDPKRLAMVIIK [DSN1]",
    "reported": 3.03
  },
  {
    "seq text": "RYSMSEQFPFYLHDNAS [IRR1]",
    "reported": 2.97
  },
  {
    "seq text": "NTLYTAIITDDLDTVLK [SRP72]",
    "reported": 2.44
  },
  {
    "seq text": "SDVLRFLQRVRVWEYRQ [RPL15A]",
    "reported": 1.71
  }
]

Endpoint output: protein stability index of RIIRKKIFIAVVWYQRL [RRI2] . Value?
1.27

Endpoint output: protein stability index of NNAKLLTFMTCNSLHIP [ESC2] . Value?
1.6

###

This section presents sequences with their documented protein stability index values.
method: protein stability index of a GFP-peptide fusion (yeast GPS) (PSI 1-4); higher = more stable; sorted into four equal gates, so the index is relative within each strain
condition info: pdr5∆
Response field accepts a number only; no unit should be typed.

// worked examples, protein stability index included
[
  {
    "seq text": "SGKETASAPLCSPKLPV [DLS1]",
    "protein stability index": 3.13
  },
  {
    "seq text": "PNIFPNLTYYNEKLECI [ITC1]",
    "protein stability index": 2.58
  }
]

Endpoint output: protein stability index of DIAFVLNNLPYKNEDVT [YCS4] . Value?
3.08

###

This section presents sequences with their documented protein stability index values.
method: protein stability index of a GFP-peptide fusion (yeast GPS) (PSI 1-4); higher = more stable; sorted into four equal gates, so the index is relative within each strain
condition info: ubr1∆
Response field accepts a number only; no unit should be typed.

// worked examples, protein stability index included
[
  {
    "seq text": "RFMRFLADRDEFIQDSA [ECM29]",
    "reported": 2.26
  },
  {
    "seq text": "QITKFPKYRDNLATWYH [SSN3]",
    "reported": 2.37
  },
  {
    "seq text": "FEGDSNMLICAPTGSGK [BRR2]",
    "reported": 2.18
  },
  {
    "seq text": "SQLDLFLRTMKLTSEET [GRR1]",
    "reported": 3.09
  }
]

Endpoint output: protein stability index of LRNLHMKRMVAQWERSK [SNF12] . Value?
2.88

Endpoint output: protein stability index of DYLTLNKVVVNLNDAGL [RPN2] . Value?
3.16

Endpoint output: protein stability index of MLSAHNIIESIANFSRA [YJR042W/NUP85] . Value?
2.48
